- Test system: CYP3A
- assay_text: in vitro
- assay_context: human, human liver microsomes, pH 7.4, probe midazolam (1′-hydroxylation)
pIC50: −log10 of the molar value.

molecule_smiles: CCOC(=O)C1=C(COCCN)NC(C)=C(C(=O)OC)[C@H]1c1ccccc1Cl
pIC50: 5.58
--
molecule_smiles: CCOC(=O)C1=C(COCCN)NC(C)=C(C(=O)OC)[C@@H]1c1ccccc1Cl
pIC50: 5.66

---

# IC50 per entry
- target: CYP2D6 (Homo sapiens)
- Sequence (P10635 whole entry): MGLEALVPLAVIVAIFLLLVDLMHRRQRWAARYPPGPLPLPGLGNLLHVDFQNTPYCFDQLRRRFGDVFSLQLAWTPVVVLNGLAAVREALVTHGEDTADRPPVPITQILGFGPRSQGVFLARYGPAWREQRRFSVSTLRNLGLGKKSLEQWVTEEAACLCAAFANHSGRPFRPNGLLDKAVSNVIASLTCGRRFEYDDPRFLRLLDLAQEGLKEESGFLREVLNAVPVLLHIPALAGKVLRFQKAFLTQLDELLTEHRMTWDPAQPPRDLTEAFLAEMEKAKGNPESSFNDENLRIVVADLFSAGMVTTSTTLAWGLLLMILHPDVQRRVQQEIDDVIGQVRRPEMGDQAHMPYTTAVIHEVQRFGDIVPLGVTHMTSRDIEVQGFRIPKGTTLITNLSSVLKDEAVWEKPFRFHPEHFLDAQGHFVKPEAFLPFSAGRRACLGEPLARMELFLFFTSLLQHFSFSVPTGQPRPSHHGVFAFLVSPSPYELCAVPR

compound: CCOC(=O)C1=C(COCCN)NC(C)=C(C(=O)OC)[C@@H]1c1ccccc1Cl [S-AML, S-amlodipine]
IC50: > 50 µM
//
compound: CCOC(=O)C1=C(COCCN)NC(C)=C(C(=O)OC)[C@H]1c1ccccc1Cl [R-AML, R-amlodipine]
IC50: > 50 µM

---

- Tested on: CYP3A
- assay_text: in vitro
- assay_context: human, human liver microsomes, pH 7.4, probe midazolam (1′-hydroxylation)
# Ki at 3 min per entry
test_readout: Ki at 3 min

molecule_smiles: CCOC(=O)C1=C(COCCN)NC(C)=C(C(=O)OC)[C@@H]1c1ccccc1Cl
reported: 8.95 µM

molecule_smiles: CCOC(=O)C1=C(COCCN)NC(C)=C(C(=O)OC)[C@H]1c1ccccc1Cl
reported: 14.8 µM
